# hERG current change (%, negative = inhibition) at 10uM per entry
testTarget: human ether-à-go-go-related gene (hERG) potassium channel (human);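 note: peak tail current of the secondary pulse compared with the same well before compound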
procedureText: primary screen, population patch clamp on CHO cells stably expressing hERG; higher = less effect of the substance
Protocol: Briefly, Chinese hamster ovary (CHO) cells stably expressing the hERG channel were dislodged from tissue culture flasks and dispensed into PPC plates. […] During the recording, background leak currents were estimated by a 100 ms step to -80 mV from an initial holding potential of -70 mV and subtracted from the subsequent current measurement. The campaign was conducted in two phases using slight differences in recording protocol. […]
About 14,000 (4.5%) of roughly 310,000 compounds showed an effect of 50% or more. Effects have a minus sign here. For the sample, strong results were picked, then their nearest neighbours and some compounds at random.
Please state the value followed by its unit.

molecule="OC1CCN(C(c2ccc3ncccc3c2)c2nnnn2C2CCCCC2)CC1 (centres unmarked)" testvalue=-31.8%
molecule=COc1ccc(COC(=O)c2c(C)nn(-c3ccccc3)c2Cl)cc1 testvalue=4.32%
molecule=Cc1cc(C(=O)NCCC2=CCCCC2)c(C)o1 testvalue=7.75%

QUERY: Tell me its hERG current change (%, negative = inhibition) at 10uM given `CC(C)CNC(=O)c1ccccc1-c1ccccc1C(=O)O` as the entry.
RESULT: 19.5%

QUERY: Tell me its hERG current change (%, negative = inhibition) at 10uM given `CCSc1nnc(-c2cccc(S(=O)(=O)N(CC)CC)c2)n1Cc1ccccc1` as the entry.
RESULT: -62.6%

* * *

testTarget: human ether-à-go-go-related gene (hERG) potassium channel (human, UniProt Q12809);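 note: peak tail current of the secondary pulse compared with the same well before compound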
Sequence (Q12809 whole entry, looked up): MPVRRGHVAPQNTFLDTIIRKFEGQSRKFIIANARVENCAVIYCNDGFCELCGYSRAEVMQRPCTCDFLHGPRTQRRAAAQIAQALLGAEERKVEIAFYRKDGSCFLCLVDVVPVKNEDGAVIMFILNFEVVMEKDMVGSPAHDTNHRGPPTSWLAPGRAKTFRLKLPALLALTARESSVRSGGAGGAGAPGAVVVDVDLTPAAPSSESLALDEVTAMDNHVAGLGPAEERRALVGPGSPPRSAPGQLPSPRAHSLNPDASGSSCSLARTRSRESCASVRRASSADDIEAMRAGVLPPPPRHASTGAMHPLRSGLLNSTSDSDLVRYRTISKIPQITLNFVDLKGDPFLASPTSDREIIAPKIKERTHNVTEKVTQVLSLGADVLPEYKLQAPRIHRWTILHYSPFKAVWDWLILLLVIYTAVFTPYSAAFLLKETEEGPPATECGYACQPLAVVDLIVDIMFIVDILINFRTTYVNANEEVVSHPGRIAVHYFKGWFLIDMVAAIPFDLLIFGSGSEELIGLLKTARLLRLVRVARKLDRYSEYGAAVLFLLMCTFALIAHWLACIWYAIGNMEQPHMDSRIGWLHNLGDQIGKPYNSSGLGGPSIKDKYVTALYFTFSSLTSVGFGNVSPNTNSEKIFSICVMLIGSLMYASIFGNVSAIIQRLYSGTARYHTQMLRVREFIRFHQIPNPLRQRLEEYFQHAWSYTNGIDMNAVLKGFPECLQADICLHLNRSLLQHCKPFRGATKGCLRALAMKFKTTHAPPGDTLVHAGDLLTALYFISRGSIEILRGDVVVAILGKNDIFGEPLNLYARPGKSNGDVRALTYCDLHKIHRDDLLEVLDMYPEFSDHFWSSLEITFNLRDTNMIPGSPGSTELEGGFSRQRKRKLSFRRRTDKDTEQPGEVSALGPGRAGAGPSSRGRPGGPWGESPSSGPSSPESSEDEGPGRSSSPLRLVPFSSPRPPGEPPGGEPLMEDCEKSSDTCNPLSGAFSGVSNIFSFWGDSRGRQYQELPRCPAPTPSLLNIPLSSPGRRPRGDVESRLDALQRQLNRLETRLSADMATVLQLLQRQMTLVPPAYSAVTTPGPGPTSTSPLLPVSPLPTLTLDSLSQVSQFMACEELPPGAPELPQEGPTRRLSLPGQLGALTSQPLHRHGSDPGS
procedureText: primary screen, population patch clamp on CHO cells stably expressing hERG; higher = less effect of the substance
The campaign covered roughly 310,000 compounds. About 14,000 (4.5%) showed an effect of 50% or more. The effect is printed as a negative number. For the sample, strong results were picked, then their nearest neighbours and some compounds at random.
Decision: hERG current change (%, negative = inhibition) at 10uM >= -20% yields Met, all other cases yield Not met.

These recorded examples may help you get a feel for the data.
compound=Cc1onc(-c2ccccc2)c1C(=O)OCc1nnc(-c2ccccc2)o1 classname=Met
compound="O=C(O)C1CCN1C1CCCCC1 (centres unmarked)" classname=Met
compound=Cc1ccc(C(=O)OCc2nnc(-c3ccccc3)o2)s1 classname=Met
compound=Cc1onc(-c2ccccc2Cl)c1C(=O)OCc1nnc(-c2ccccc2)o1 classname=Met

QUERY: Threshold query (hERG current change (%, negative = inhibition) at 10uM >= -20%) on `O=C(N/N=C/c1cc(Br)cc(Br)c1O)c1ccncc1`
RESULT: Met

QUERY: Threshold query (hERG current change (%, negative = inhibition) at 10uM >= -20%) on CCCCS(=O)CC(CS(=O)CCCC)OC(=O)c1ccccc1 (centres unmarked)
RESULT: Not met

QUERY: Threshold query (hERG current change (%, negative = inhibition) at 10uM >= -20%) on CCCCS(=O)CC(COC)OC(=O)c1ccccc1 (centres unmarked)
RESULT: Met

QUERY: Threshold query (hERG current change (%, negative = inhibition) at 10uM >= -20%) on CCCCS(=O)CC(COc1ccc(Cl)cc1)OC(=O)c1ccccc1 (centres unmarked)
RESULT: Not met

QUERY: Threshold query (hERG current change (%, negative = inhibition) at 10uM >= -20%) on Cc1occc1C(=O)N1CCN(C(=O)C2CCCO2)CC1 (centres unmarked)
RESULT: Met

QUERY: Threshold query (hERG current change (%, negative = inhibition) at 10uM >= -20%) on O=[N+]([O-])c1ccccc1N/N=C1\CC2CC=CC12 (centres unmarked)
RESULT: Met

QUERY: Threshold query (hERG current change (%, negative = inhibition) at 10uM >= -20%) on `Cc1ccc(F)c(NC(=O)c2c(-c3ccccc3)noc2C)c1`
RESULT: Met

src = paper PMC4336329
